Value source: patent US20250289893A1

# Tested On: T1, human CD1a expressed on cells (human, UniProt P06126 17-327; P61769 21-119)
# T1 construct: also called HEK - CD1a; C1R - CD1a
# Assay Details: flow cytometry, HEK-293 cells, 31.6 µg/ml antibody
Parameter Measured: Fluorescence Intensity Geomean (normalized to background)
State the value with its unit after it.

{"columns": ["Binder", "Result"],
 "data": [
  ["116 (VR12117) (antibody, V domains shown, also called OX116) VH: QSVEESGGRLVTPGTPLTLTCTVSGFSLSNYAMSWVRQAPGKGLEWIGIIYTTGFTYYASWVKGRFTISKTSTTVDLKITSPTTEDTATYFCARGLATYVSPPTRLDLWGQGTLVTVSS VL: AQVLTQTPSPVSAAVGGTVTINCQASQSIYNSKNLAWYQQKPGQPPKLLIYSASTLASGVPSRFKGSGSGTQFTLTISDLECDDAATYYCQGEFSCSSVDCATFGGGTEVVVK", "5.6 fold over background"],
  ["111 (VR12113) (antibody, V domains shown, also called OX111) VH: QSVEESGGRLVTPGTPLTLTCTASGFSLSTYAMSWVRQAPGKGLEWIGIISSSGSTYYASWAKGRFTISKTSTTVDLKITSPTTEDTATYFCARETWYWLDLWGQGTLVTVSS VL: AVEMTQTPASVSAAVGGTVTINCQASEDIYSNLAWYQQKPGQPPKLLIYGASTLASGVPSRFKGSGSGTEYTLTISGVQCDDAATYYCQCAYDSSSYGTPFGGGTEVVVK", "6.3 fold over background"],
  ["110 (VR12112) (antibody, V domains shown, also called OX110; antibody 110) VH: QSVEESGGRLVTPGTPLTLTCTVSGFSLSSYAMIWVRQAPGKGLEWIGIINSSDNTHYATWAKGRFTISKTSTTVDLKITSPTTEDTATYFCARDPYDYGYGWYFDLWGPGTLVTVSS VL: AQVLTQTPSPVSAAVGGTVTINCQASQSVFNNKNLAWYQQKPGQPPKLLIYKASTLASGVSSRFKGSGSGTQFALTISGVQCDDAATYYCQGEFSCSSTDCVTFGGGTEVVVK", "10.9 fold over background"]
]}

// Fluorescence Intensity Geomean (normalized to background) value for 77A (VR11851) (antibody, V domains shown, also called OX77a; antibody 77a) VH: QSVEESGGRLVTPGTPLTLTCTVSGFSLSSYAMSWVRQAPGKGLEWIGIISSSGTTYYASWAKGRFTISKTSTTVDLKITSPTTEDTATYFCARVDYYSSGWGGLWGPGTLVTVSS VL: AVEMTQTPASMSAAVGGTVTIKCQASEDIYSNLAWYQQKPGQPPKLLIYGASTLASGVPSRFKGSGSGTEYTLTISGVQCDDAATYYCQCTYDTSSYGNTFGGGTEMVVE : 8.2 fold over background
